# System: SF-295
# Test Summary: NCI tumour cell line growth inhibition, 48 h
Activity calls are given as the source filed them. No stated cut-off is given here; in the data, active = GI50 up to about 1.1 µM and inactive = higher.
Hi! Could you answer with just one of these? T = active, F = inactive

Solved cases below.
{"Smiles Structure": "CC1=NC(=Cc2cccc(Cl)c2)C(=O)N1n1c(-c2ccccc2)nc2ccccc2c1=O", "Tested On": "SF-295", "Category": "F"}
{"Smiles Structure": "O=C1C(Cl)=C(N2CCSCC2)C(=O)c2c(O)ccc(O)c21", "Tested On": "SF-295", "Category": "T"}
{"Smiles Structure": "COc1cc(C)cc(OC)c1/C=C/C(=O)O", "Tested On": "SF-295", "Category": "F"}

Inquiry: Hi, do you know how CC(C)(Oc1ccccc1)C(=O)Sc1c(-c2ccccc2)c(=O)n(-c2ccccc2)c(=S)n1-c1ccccc1 came out in this test?
Reply text: F

Inquiry: Please share the test call associated with COc1cc(-c2oc3c(OC)cc(OC)c(O)c3c(=O)c2OC)cc(OC)c1OC .
Reply text: F
